These records show IC50 for UniProtKB Q99705.
Sequence (Q99705 whole entry): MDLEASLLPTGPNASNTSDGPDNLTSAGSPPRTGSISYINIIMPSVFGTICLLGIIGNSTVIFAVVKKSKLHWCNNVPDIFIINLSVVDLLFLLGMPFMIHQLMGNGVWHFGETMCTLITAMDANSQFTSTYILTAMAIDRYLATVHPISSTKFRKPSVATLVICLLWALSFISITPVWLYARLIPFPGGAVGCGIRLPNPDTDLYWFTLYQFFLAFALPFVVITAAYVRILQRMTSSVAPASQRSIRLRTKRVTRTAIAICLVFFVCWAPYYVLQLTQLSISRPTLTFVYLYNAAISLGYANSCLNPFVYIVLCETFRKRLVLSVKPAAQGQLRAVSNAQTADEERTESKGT
Quick note: give the figure in nM, leave out the unit.

Example cases with answers are listed next.
Short answer please: IC50, UniProtKB Q99705, entry O=C(Cn1ccc(OCc2ccccc2)cc1=O)c1ccc2c(c1)CCN(C(=O)C(F)(F)F)CC2 [Example 22.1] 51

Record lookup: for UniProtKB Q99705, what IC50 belongs to CN1Cc2ccc(C(=O)Cn3ccc(OCc4ccccc4)cc3=O)cc2C1 [Example 37.2] ? 33

Record CC1(O)CCN(Cc2ccc(C(=O)Cn3ncc(OCc4ccccc4)cc3=O)cc2)CC1 [Example 32.3] : what is its IC50 with UniProtKB Q99705? 9

Next compound, please.
Return IC50 measured with UniProtKB Q99705 given this compound: O=C(Cn1ncc(OCc2ccc(Cl)cn2)cc1=O)c1ccc(CN2CCCC2)cc1 [Example 33.8] 19

Measured values drawn from patent US8067590B2 for this set.
